Test system: HCC 2998
Experiment: NCI tumour cell line growth inhibition, 48 h
The source made the active and inactive calls. Rule as the data show it: active = GI50 up to about 1.1 µM and inactive = higher.
Labels: Y = active, N = inactive

| molecule | qualitativeLabel |
| --- | --- |
| COc1cc(OC)cc(Oc2nc3c(N)cc(C(F)(F)F)cc3nc2-c2ccccc2)c1 | N |
| N=C(N)NS(=O)(=O)c1ccc(NNc2c3ccccc3nc3c(C(=O)Nc4ccc(S(N)(=O)=O)cc4)cccc23)cc1 | N |
| CP(=O)(CCSc1ccccc1)c1ccccc1 (stereo unspecified) | N |
| O=C1c2cc3c(cc2CC12Cc1ccccc1C2)CCC3 | N |
| CC(=O)O[C@H]1[C@@H](N2CCN(C)CC2)C[C@H]2[C@@H]3CC=C4C[C@@H](N5CCCC5)CC[C@]4(C)[C@H]3CC[C@@]21C | N |
| O=C1c2c(O)ccc(O)c2C(=O)c2c(NCCNC(=O)C(O)C(O)C(O)C(O)CO)ccc(NCCNC(=O)C(O)C(O)C(O)C(O)CO)c21 (stereo unspecified) | Y |

* * *

System: A498
Test: NCI tumour cell line growth inhibition, 48 h
Active and inactive are the calls of the source. Rule as the data show it: active = GI50 up to about 1.1 µM and inactive = higher.
Labels: Yes = active, No = inactive

| compound | qualitativeLabel |
| --- | --- |
| CC1(C)[C@@H](Cn2cnc3c(O)nc(N)nc32)CC[C@@]1(C)CO | No |
| O=C(Nc1ccc(Cl)c(C(F)(F)F)c1)C(=O)C(C(=O)/C=C/c1ccccc1)C1OC(=O)c2ccccc21 (stereo not drawn) | No |
| CC(=O)O[C@H](C[C@@H](C)[C@H]1C(=O)[C@H](O)[C@@]2(C)C3CC[C@H]4C(C)(C)[C@@H](OC5OCC(O)C(O)C5O)CC[C@@]45C[C@@]35CC[C@]12C)[C@@H]1OC1(C)C (stereo partly drawn) | No |
| CC(=O)N1NC(c2ccccc2)=CC(=O)/C1=C/C(=O)c1ccccc1 | No |
| Nc1n[n+](CC(=O)c2ccccc2)c2sc(-c3ccccc3)nn12 | No |
| O=C1c2c(O)ccc(O)c2C(=O)c2c(NCCNC(=O)C(O)C(O)C(O)C(O)CO)ccc(NCCNC(=O)C(O)C(O)C(O)C(O)CO)c21 (stereo not drawn) | Yes |
| COc1cccc(NC(=O)CC(=O)N2NC(c3ccccc3)C(/N=N/c3cccc(C(=O)O)c3)C2=O)c1 (stereo not drawn) | No |
| COC(=O)[C@@H]1CN(C(=O)CCc2ccccc2)C(=O)N1C(=O)OCc1ccccc1 | No |
| Cc1ccc(S(=O)(=O)N/C(=C\C=C\c2ccccc2)C(=O)C(C)(C)C)cc1 | No |
| NC(=S)Nc1ccc(S(=O)(=O)Nc2ccc(S(N)(=O)=O)cc2)cc1 | No |
| COc1cccc(C2c3cc4c(cc3OC(C)(O)C2C)OCO4)c1O (stereo not drawn) | No |
| COc1ccc(-c2cc(=O)c3c(O)c(OC)c(OC)c(OC)c3o2)cc1OC [5-DEMETHYLNOBILETIN] | No |
| CC1C[C@]2(C)C(=S)Nc3ccccc3[C@@H]2Nc2ccccc21 (stereo partly drawn) | No |

* * *

Test system: SK-OV-3
Assay: NCI tumour cell line growth inhibition, 48 h
Activity calls are given as the source filed them. Cut-off read from the data, not from the text of the source: active = GI50 up to about 1.1 µM and inactive = higher.
measuredAttribute: GI50

| compound | result |
| --- | --- |
| O=C(O)Cc1cccc2c1OC(c1ccccc1)C(Cl)(C(=O)c1ccccc1)C2=O (stereo unspecified) | > 100 µM (inactive) |
| CCCCCCCC1(c2ccc(N)cc2)CCC(=O)NC1=O (stereo unspecified) | 33 µM (inactive) |
| COC1=CC(=O)c2c(O)ccc(O)c2C1=O | 18.6 µM (inactive) |
| CCCC(=O)Nc1cn(COC)c(C(=O)N2C[C@H]3C[C@@]34C2=CC(=O)c2[nH]cc(C)c24)n1 | 16.7 µM (inactive) |
| O=C[C@@H](CO)O[C@H](C=O)c1c[nH]c(=O)[nH]c1=O | 112 µM (inactive) |
| C=CCc1cc(C(Cc2ccccc2)NC(C)C)cc(OCc2ccccc2)c1OCc1ccccc1 (stereo unspecified) | 14 µM (inactive) |
| CCOC(=O)c1c(-c2ccccc2)oc(-c2ccccc2)c1C(=O)OCC | > 100 µM (inactive) |
| COc1cc2c(cc1O)-c1c(cnn1-c1ccc([N+](=O)[O-])cc1)CCC2 | 44.3 µM (inactive) |
| N=c1c2c(ncn1N)Oc1c(c(-c3ccccc3)nn1-c1ccccc1)C2c1ccc(Cl)cc1 (stereo unspecified) | 1.85 µM (inactive) |
| CCCCCC1C2C(=O)NC(=O)C1C(=O)NC2=O (stereo unspecified) | > 100 µM (inactive) |
| COC(=O)C1=C(OC)c2cc3c(cc2C(c2cc(OC)c(OC)c(OC)c2)C1C(=O)OC)OCO3 (stereo unspecified) | > 100 µM (inactive) |
| O=C(CC(Cl)=C(Cl)Cl)c1ccccc1 | > 100 µM (inactive) |
| CS/C(=C(\S)c1ccccc1)c1ccccc1 | > 100 µM (inactive) |
| NNC(=O)CC(=O)Nc1ccc(S(=O)(=O)c2ccc(NC(=O)CC(=O)NN)cc2)cc1 | > 100 µM (inactive) |
| O=C(OC12CC3CC(CC(C3)C1)C2)c1ccc(NCc2cc(O)ccc2O)cc1 | 2.99 µM (inactive) |
| Cc1cccc2c1c(=O)c1c(O)c3c(cc1n2C)OC(C)(C)C=C3 | > 10 µM (inactive) |
| CC(C)Cc1cccc(C(C)C)c1NC(=O)CCC(=O)N/N=C1\C(=N/NC(=O)CCC(=O)Nc2c(C(C)C)cccc2C(C)C)C(c2ccc3c(c2)OCO3)Oc2ccccc21 (stereo unspecified) | > 100 µM (inactive) |
| COC(=O)C(Cc1c[nH]c2ccccc12)NC1=Nc2ccncc2S(=O)(=O)N1c1ccccc1 (stereo unspecified) | 56.5 µM (inactive) |
| CCOC(=O)/C=C/n1c2ccccc2c(=O)c2cc(OC)ccc21 | > 100 µM (inactive) |
| N=C(/C=C/c1ccc(-c2cn3cc(/C=C/C(=N)N4CCCC4)ccc3n2)cc1)N1CCCC1 | > 100 µM (inactive) |
| O=C1c2c(O)ccc(O)c2C(=O)c2c(NCCNC(=O)C(O)C(O)C(O)C(O)CO)ccc(NCCNC(=O)C(O)C(O)C(O)C(O)CO)c21 (stereo unspecified) | < 0.0233 µM (active) |
| O=c1cc[nH]c2c1ccc1ncccc12 | > 100 µM (inactive) |
| O=[N+]([O-])c1ccc(Cc2nc3ccccc3s2)cc1 | > 100 µM (inactive) |
| CC1(C)OC(=O)C2(O1)C(=O)C1CCCCC12 (stereo unspecified) | 8.51 µM (inactive) |
| C/C(=N/NC(N)=S)C(CN1CCOCC1)C(C1=C(O)c2ccccc2OC1)c1ccccc1 (stereo unspecified) | > 100 µM (inactive) |
| CO/N=C(\C(=O)O/C(=N/C1CCCCC1)NC1CCCCC1)c1csc(NC(c2ccccc2)(c2ccccc2)c2ccccc2)n1 | > 10 µM (inactive) |
| O=C(O)C12CC3(C(=O)O)CC(C(=O)O)(CC(C(=O)O)(C1)C3=O)C2=O | > 100 µM (inactive) |
| Cc1ccc2ccc3ccc(C)nc3c2n1 | > 100 µM (inactive) |
| Cc1ccc(C)c(COCCOCn2c(=O)[nH]c(=O)c3cc(Br)ccc32)c1 | > 100 µM (inactive) |
| CCOC(=O)C1(C(=O)OCC)[C@@H](c2ccccc2)C2=NO[C@@H]3CCC[C@H]1[C@H]23 | 53.6 µM (inactive) |
| CC(=O)OC(Cc1c(O)c2c(C)cccc2oc1=O)C(C)(C)O (stereo unspecified) | > 100 µM (inactive) |

* * *

Tested on: KM12
Assay: NCI tumour cell line growth inhibition, 48 h
Calls of active or inactive are those of the source. No stated cut-off is given here; in the data, active = GI50 up to about 1.1 µM and inactive = higher.
Labels: active, inactive

| compound | qualitativeLabel |
| --- | --- |
| O=C1c2c(O)ccc(O)c2C(=O)c2c(NCCNC(=O)C(O)C(O)C(O)C(O)CO)ccc(NCCNC(=O)C(O)C(O)C(O)C(O)CO)c21 (stereo not given) | active |
| CC(C)Cc1ccc(C(C)C(=O)N2CCN(/C=C/c3ccccc3)CC2)cc1 (stereo not given) | inactive |
| NC(=S)Nc1ccc(S(=O)(=O)Nc2ccc(S(N)(=O)=O)cc2)cc1 | inactive |
| COc1cccc(C2c3cc4c(cc3OC(C)(O)C2C)OCO4)c1O (stereo not given) | inactive |
| N=C(N)NS(=O)(=O)c1ccc(NNc2c3ccccc3nc3c(C(=O)Nc4ccc(S(N)(=O)=O)cc4)cccc23)cc1 | inactive |

* * *

Tested on: SF-539
Test: NCI tumour cell line growth inhibition, 48 h
Active and inactive are the calls of the source. Cut-off read from the data, not from the text of the source: active = GI50 up to about 1.1 µM and inactive = higher.

| compound | targetSystem | GI50 |
| --- | --- | --- |
| C[C@]12CCC(=O)CC1CCCC2=O (stereo partly specified) | SF-539 | > 100 µM (inactive) |
| Cc1ccc(/C=C2\N=C(N3CCCC(CO)C3)NC2=O)cc1 (stereo unspecified) | SF-539 | > 100 µM (inactive) |
| COc1cc2ccc(C(=O)NCCCNC(=O)c3ccc4cc(OC)c(OC)cc4c3)cc2cc1OC | SF-539 | 53.3 µM (inactive) |
| CCOC(=O)c1cc2cc3c4c(c2oc1=O)CCCN4CCC3 | SF-539 | 23.5 µM (inactive) |
| CN(C)CC1CCC(=C2CCCC2)C1=O (stereo unspecified) | SF-539 | 20 µM (inactive) |
| CC(=O)OC(Cc1c(O)c2c(C)cccc2oc1=O)C(C)(C)O (stereo unspecified) | SF-539 | > 100 µM (inactive) |
| COC(=O)C1=C(OC)c2cc3c(cc2C(c2cc(OC)c(OC)c(OC)c2)C1C(=O)OC)OCO3 (stereo unspecified) | SF-539 | > 100 µM (inactive) |
| Cc1cc(S(=O)(=O)Nc2nc(N)nc(N(C)C)n2)c(SCC(=O)O)cc1Cl | SF-539 | > 10 µM (inactive) |
| CC1CN(c2cc3c(cc2F)c(=O)c(C(=O)O)cn3-c2ccc(F)cn2)CC(C)N1 (stereo unspecified) | SF-539 | > 100 µM (inactive) |
| CCOC(=O)C1C(=O)CC(O)(c2ccccc2)C(C(=O)OCC)C1c1ccc(OC)cc1 (stereo unspecified) | SF-539 | 15.6 µM (inactive) |
| O=C(O)C(Cc1ccc2c(c1)CCC2)(Cc1ccc2c(c1)CCC2)C(=O)O | SF-539 | > 100 µM (inactive) |
| COC(=O)CCC(NC(=S)N/N=C/c1ccco1)C(=O)OC (stereo unspecified) | SF-539 | > 100 µM (inactive) |
| CC(=O)OC1=c2ccccc2=C(O)C2C1C=NN2C(C)=O (stereo unspecified) | SF-539 | > 100 µM (inactive) |
| COC1(Cc2ccccc2)C(=O)c2ccccc2N1C(C)=O (stereo unspecified) | SF-539 | > 100 µM (inactive) |
| C=C(C)C1CC2=C(C(=O)OC)C=C(O2)C(C(=C)C)[C@@H]2OC(=O)/C(=C\C1O)[C@H]2N(C)C (stereo partly specified) | SF-539 | 7.4 µM (inactive) |
| C=C(C)COC1CCCCO1 (stereo unspecified) | SF-539 | > 100 µM (inactive) |
